Biological target: T1, human PD-L2 (full-length, on cells) (human, UniProt Q9BQ51 20-273)
T1 chain: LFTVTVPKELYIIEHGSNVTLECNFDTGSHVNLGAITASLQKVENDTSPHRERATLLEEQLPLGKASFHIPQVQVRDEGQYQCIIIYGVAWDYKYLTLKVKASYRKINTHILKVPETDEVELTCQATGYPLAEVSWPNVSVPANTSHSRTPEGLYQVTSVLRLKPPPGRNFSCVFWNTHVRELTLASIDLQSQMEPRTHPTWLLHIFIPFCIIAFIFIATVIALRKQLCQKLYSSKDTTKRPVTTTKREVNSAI
Experiment: FACS blocking of PD-1 binding to CHO-K1/hPD-L2; high antigen concentration
Measure Name: IC50
# do not omit the unit; it follows the number

# query: IC50 of entry 11C11-H5 (antibody, V domains shown, Both formats under this entry) VH: QVQLVESGGGVVQPGRSLRLSCAASGFAFSAYGMHWVRQAPGKGLEWVAISWYDGSNNYHADSVKGRFTISRDSSKNTLYLQMNSLRAEDTAVYYCAKSIGVARHYYYGMDVWGQGTTVTVSS VL: SYELTQPPSVSVSPGQTASITCSGEELGDKYACWYQQKPGQSPVLVIYQDSKRPSGIPERFSGSNSGNAATLTISGTQAMDEADYYCQAWDSITVVFGGGTKLTVLG 0.527 nM
